# Kd per record follows
# target_or_test_system: human recombinant integrin αvβ5 (αv extracellular domain-acidic leucine zipper-His×6 with β5 extracellular domain-basic leucine zipper) (human) (UniProt P06756)
# Sequence (P06756 other isoform, or with tags, fused parts or gaps, chain 1 of 2): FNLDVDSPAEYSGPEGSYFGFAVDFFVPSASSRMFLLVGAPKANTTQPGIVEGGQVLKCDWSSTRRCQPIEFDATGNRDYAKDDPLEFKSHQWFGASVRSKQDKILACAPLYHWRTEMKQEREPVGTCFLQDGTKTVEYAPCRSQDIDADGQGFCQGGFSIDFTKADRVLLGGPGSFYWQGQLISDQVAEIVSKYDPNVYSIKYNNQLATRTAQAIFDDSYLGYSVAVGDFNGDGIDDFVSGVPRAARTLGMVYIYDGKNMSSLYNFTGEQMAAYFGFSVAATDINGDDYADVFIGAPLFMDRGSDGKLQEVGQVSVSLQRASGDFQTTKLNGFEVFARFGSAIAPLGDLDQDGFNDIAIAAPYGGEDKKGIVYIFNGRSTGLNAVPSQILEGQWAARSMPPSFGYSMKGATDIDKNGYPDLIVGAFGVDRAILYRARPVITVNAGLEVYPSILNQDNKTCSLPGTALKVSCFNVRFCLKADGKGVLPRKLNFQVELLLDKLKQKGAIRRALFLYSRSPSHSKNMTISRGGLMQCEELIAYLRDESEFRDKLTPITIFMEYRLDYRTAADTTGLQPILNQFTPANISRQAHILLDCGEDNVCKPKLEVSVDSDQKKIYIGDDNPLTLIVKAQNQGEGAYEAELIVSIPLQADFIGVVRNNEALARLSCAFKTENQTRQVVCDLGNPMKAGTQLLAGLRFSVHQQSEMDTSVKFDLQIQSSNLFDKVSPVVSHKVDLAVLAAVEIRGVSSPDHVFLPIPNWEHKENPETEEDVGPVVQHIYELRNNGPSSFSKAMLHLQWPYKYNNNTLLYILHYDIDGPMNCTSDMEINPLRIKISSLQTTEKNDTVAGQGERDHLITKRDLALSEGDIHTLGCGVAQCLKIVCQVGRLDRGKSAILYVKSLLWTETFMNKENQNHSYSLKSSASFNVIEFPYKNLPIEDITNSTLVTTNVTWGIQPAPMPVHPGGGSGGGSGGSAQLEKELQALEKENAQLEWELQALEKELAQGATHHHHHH
# Sequence (chain, as listed by the source, chain 2 of 2): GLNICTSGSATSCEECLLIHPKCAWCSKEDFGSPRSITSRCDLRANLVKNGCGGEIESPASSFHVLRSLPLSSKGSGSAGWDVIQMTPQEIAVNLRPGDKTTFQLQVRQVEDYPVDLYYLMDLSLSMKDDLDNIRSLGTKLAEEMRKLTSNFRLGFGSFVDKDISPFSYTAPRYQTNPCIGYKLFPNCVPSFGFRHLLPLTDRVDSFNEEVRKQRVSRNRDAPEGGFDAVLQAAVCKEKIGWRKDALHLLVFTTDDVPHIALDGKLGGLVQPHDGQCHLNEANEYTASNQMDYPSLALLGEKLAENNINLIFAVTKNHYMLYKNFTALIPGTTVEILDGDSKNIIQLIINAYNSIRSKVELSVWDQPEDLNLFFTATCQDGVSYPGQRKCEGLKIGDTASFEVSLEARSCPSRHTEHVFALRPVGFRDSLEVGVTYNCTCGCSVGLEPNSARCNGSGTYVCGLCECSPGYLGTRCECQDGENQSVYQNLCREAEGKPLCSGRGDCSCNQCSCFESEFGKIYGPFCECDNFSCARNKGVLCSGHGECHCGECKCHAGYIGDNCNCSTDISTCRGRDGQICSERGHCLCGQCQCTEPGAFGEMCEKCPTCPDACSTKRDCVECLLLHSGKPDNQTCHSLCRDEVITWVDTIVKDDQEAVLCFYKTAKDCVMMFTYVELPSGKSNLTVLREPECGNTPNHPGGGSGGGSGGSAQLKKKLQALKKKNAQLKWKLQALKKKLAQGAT
# measurement_notes: BLI (Octet), antibody captured on anti-human IgG Fc (AHC) biosensor, integrin αvβ5 3.1-100 nM as analyte, divalent cations

| binder | Kd [nM] |
| --- | --- |
| 5#3-Ras03 (antibody, part only; not given: RT22 heavy chain, constant regions, V domains shown, not shown: another chain or arm of the molecule; a dimerising Fc or GST; large carriers; small tags and cut ends, chain 1: disulfide bond Cys6-Cys16 closes the 5#3 cyclic peptide) VL: SRDETCTPRGDTFAICMGSSSNDIQMTQSPSSLSASVGDRVTITCKSSQSLLNSRDGKNYLAWYQQKPGKAPKLLIYWASTRESGVPSRFSGSGSGTDFTLTISSLQPEDFATYFCQQYWYWMYTFGQGTKVEIK | 4.88 |
| 5#4-Ras03 (antibody, part only; not given: RT22 heavy chain, constant regions, V domains shown, not shown: another chain or arm of the molecule; a dimerising Fc or GST; large carriers; small tags and cut ends, chain 1: disulfide bond Cys6-Cys17 closes the 5#4 cyclic peptide) VL: EHATNCTTRGDTFVVLCGLGMGSSSNDIQMTQSPSSLSASVGDRVTITCKSSQSLLNSRDGKNYLAWYQQKPGKAPKLLIYWASTRESGVPSRFSGSGSGTDFTLTISSLQPEDFATYFCQQYWYWMYTFGQGTKVEIK | 7.01 |
| 5#2-Ras03 (antibody, part only; not given: RT22 heavy chain, constant regions, V domains shown, not shown: another chain or arm of the molecule; a dimerising Fc or GST; large carriers; small tags and cut ends, chain 1: disulfide bond Cys6-Cys14 closes the 5#2 cyclic peptide) VL: ASYNDCQSRGDTFCVADMGSSSNDIQMTQSPSSLSASVGDRVTITCKSSQSLLNSRDGKNYLAWYQQKPGKAPKLLIYWASTRESGVPSRFSGSGSGTDFTLTISSLQPEDFATYFCQQYWYWMYTFGQGTKVEIK | 2.63 |
| in4-Ras03 (antibody, part only; not given: RT22 heavy chain, light constant, V domains shown, not shown: another chain or arm of the molecule; a dimerising Fc or GST, chain 1: disulfide bond Cys6-Cys10 closes the in4 cyclic peptide) VL: DGVRQCRGDCFDGPLMGSSSNDIQMTQSPSSLSASVGDRVTITCKSSQSLLNSRDGKNYLAWYQQKPGKAPKLLIYWASTRESGVPSRFSGSGSGTDFTLTISSLQPEDFATYFCQQYWYWMYTFGQGTKVEIK | 2.06 |
| 5#1-Ras03 (antibody, part only; not given: RT22 heavy chain, constant regions, V domains shown, not shown: another chain or arm of the molecule; a dimerising Fc or GST; large carriers; small tags and cut ends, chain 1: disulfide bond Cys6-Cys15 closes the 5#1 cyclic peptide) VL: LPSGACVVRGDTFQCVSVGMGSSSNDIQMTQSPSSLSASVGDRVTITCKSSQSLLNSRDGKNYLAWYQQKPGKAPKLLIYWASTRESGVPSRFSGSGSGTDFTLTISSLQPEDFATYFCQQYWYWMYTFGQGTKVEIK | 1.13 |
